These data points were gathered from paper PMC3847553.

Target: rat OX2R (Rattus norvegicus)
Sequence (P56719 1-460): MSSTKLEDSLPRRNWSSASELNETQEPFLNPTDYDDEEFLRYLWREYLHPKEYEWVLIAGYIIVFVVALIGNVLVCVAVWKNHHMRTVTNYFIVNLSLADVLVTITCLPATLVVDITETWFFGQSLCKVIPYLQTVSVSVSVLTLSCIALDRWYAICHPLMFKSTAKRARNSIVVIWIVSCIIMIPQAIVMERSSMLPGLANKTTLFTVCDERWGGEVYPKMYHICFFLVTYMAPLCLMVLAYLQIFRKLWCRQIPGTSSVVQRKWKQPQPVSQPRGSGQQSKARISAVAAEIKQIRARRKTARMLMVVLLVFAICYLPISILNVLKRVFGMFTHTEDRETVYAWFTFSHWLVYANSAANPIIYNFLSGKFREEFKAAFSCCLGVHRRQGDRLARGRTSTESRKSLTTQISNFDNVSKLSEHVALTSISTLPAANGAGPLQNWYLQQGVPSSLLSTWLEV
Assay: FLIPR orexin A-stimulated calcium accumulation, rat OX2R
Assay type: cell-based
Settings: HEK cells, antagonist incubation 30 min, read-out: pKi (converted)
Assignment: determine reported Ki for the given compounds.
A complete answer gives the number and then names the unit.

Completed entries (count: 3):
{"compound": "CNC(=O)[C@@H](c1ccccc1)N1CCc2cc(OC)c(OC)cc2[C@@H]1CCc1ccc(C(F)(F)F)cc1 [Almorexant]", "Ki": "5.62 nM"}
{"compound": "Cc1nc(C(=O)N2CCCC[C@H]2CNC(=O)c2cccc3occc23)c(-c2ccc(F)cc2)s1 [SB-649868]", "Ki": "0.457 nM"}
{"compound": "Cc1ccc(-c2ncccn2)c(C(=O)N2C[C@H](COc3ccc(F)cn3)CC[C@H]2C)c1 [Filorexant]", "Ki": "0.741 nM"}

Ki for COc1ccnc(N2CCC3(CCCN(Cc4c[nH]c5ccccc45)C3=O)CC2)n1 [IPSU] ? 23.4 nM

* * *

Target: mouse OX1R (Mus musculus, UniProt P58307)
Construct: expressed in transfected cells; host or cells: HEK; cells from GNF, San Diego
Sequence (P58307 whole entry): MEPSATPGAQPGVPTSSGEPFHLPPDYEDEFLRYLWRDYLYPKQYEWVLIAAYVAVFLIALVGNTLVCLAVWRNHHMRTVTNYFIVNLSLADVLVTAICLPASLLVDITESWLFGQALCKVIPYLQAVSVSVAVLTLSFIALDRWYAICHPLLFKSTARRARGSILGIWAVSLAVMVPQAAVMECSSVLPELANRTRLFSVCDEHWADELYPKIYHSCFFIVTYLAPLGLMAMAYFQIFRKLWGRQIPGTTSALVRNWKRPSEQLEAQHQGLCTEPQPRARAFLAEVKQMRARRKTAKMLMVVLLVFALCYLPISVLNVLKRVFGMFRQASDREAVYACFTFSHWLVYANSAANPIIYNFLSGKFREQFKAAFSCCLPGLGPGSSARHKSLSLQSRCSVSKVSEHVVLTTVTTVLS
Test: FLIPR orexin A-stimulated calcium accumulation, mouse OX1R
Format: cell-based
Settings: pKi, HEK cells, antagonist incubation 2 h
Assignment: determine reported pKi for the given compounds.
One number for each entry, as −log10 of the molar value.

State recorded pKi for all listed compounds.
1. Cc1ccc(-n2nccn2)c(C(=O)N2CCN(c3nc4cc(Cl)ccc4o3)CC[C@H]2C)c1
2. CNC(=O)[C@@H](c1ccccc1)N1CCc2cc(OC)c(OC)cc2[C@@H]1CCc1ccc(C(F)(F)F)cc1

1: 9.03; 2: 7.47

* * *

Molecular target: human OX1R (Homo sapiens)
Construct: expressed in transfected cells; host or cells: CHO; cells from GNF, San Diego
Sequence (O43613 whole entry): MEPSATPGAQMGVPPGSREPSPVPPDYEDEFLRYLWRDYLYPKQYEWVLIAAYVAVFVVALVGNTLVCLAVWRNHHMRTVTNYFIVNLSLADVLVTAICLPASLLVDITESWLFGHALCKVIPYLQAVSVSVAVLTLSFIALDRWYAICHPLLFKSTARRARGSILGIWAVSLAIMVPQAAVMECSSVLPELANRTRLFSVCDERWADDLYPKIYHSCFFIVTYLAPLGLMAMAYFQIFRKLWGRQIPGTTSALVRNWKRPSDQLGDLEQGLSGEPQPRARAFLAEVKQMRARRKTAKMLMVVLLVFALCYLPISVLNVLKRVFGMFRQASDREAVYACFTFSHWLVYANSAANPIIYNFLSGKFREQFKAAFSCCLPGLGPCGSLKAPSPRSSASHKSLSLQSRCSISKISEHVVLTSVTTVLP
Assay: FLIPR orexin A-stimulated calcium accumulation, human OX1R
Format: cell-based
Details: CHO cells, antagonist incubation 2 h
readout_label: pKi
One number for each entry, as −log10 of the molar value.

{"structure_as_smiles": "Cc1ccc(-c2ncccn2)c(C(=O)N2C[C@H](COc3ccc(F)cn3)CC[C@H]2C)c1", "pKi": 8.78}

pKi for Cc1nc(C(=O)N2CCCC[C@H]2CNC(=O)c2cccc3occc23)c(-c2ccc(F)cc2)s1 ? 9.29

* * *

Molecular target: rat OX2R (Rattus norvegicus, UniProt P56719)
Experiment: FLIPR orexin A-stimulated calcium accumulation, rat OX2R
Assay type: cell-based
Conditions: pKi, HEK cells, antagonist incubation 30 min
From the text: Chinese Hamster Ovary (CHO) cells stably transfected with the cDNA encoding the human OX1R (CHO-hOX1) or OX2R (CHO-hOX2) were used (kindly provided by T. Cremer and Dr. S. Geisse, NIBR Basel, Switzerland). For measurements of calcium accumulation using FLIPR® (Fluorescent Imaging Plate Reader) assay, CHO or Human Embryonic Kidney (HEK) cells stably expressing mouse, rat or human OX1R or OX2R (kindly provided by Dr. A. Chen, GNF, San Diego, CA, USA) were used. […]
readout_label: Ki (nM)
Give bare numbers, in nM.

Ki for Cc1ccc(-n2nccn2)c(C(=O)N2CCN(c3nc4cc(Cl)ccc4o3)CC[C@H]2C)c1 ? 1.95
